# cond: in acetone, 311.95 K
recorded metric: solubility (mole fraction)
// no unit, no text: just the number

## Task Look up solubility (mole fraction) for this compound: O=C1C=CC(=O)N1c1cc(F)c(Br)c(F)c1
## Result 0.0152

---

# cond: in THF, 306.65 K
recorded metric: solubility (mole fraction)
// no unit, no text: just the number

## Task Look up solubility (mole fraction) for this compound: O=C1C=CC(=O)N1c1cc(F)c(Br)c(F)c1
## Result 0.0249

---

# cond: in pyridine, 322.55 K
recorded metric: solubility (mole fraction)
// no unit, no text: just the number

## Task Look up solubility (mole fraction) for this compound: O=C1C=CC(=O)N1c1cc(F)c(Br)c(F)c1
## Result 0.0291

---

# cond: in pyridine, 304.65 K
recorded metric: solubility (mole fraction)
// no unit, no text: just the number

## Task Look up solubility (mole fraction) for this compound: O=C1C=CC(=O)N1c1cc(F)c(Br)c(F)c1
## Result 0.0186

---

# cond: in acetone, 291.85 K
recorded metric: solubility (mole fraction)

## Task Look up solubility (mole fraction) for this molecule: O=C1C=CC(=O)N1c1cc(F)c(Br)c(F)c1
## Result 0.0081

---

# cond: in acetonitrile, 325.45 K
recorded metric: solubility (mole fraction)

## Task Look up solubility (mole fraction) for this compound: O=C1C=CC(=O)N1c1cc(F)c(Br)c(F)c1
## Result 0.0095

---

# cond: in THF, 327.65 K
recorded metric: solubility (mole fraction)
// no unit, no text: just the number

## Task Look up solubility (mole fraction) for this compound: O=C1C=CC(=O)N1c1cc(F)c(Br)c(F)c1
## Result 0.0409

---

# cond: in pyridine, 334.15 K
recorded metric: solubility (mole fraction)

## Task Look up solubility (mole fraction) for this compound: O=C1C=CC(=O)N1c1cc(F)c(Br)c(F)c1
## Result 0.0394

---

# cond: in acetone, 287.65 K
recorded metric: solubility (mole fraction)
// no unit, no text: just the number

## Task Look up solubility (mole fraction) for this molecule: O=C1C=CC(=O)N1c1cc(F)c(Br)c(F)c1
## Result 0.0071

---

# cond: in pyridine, 285.55 K
recorded metric: solubility (mole fraction)
// no unit, no text: just the number

## Task Look up solubility (mole fraction) for this molecule: O=C1C=CC(=O)N1c1cc(F)c(Br)c(F)c1
## Result 0.0116

---

# cond: in acetone, 309.45 K
recorded metric: solubility (mole fraction)
// no unit, no text: just the number

## Task Look up solubility (mole fraction) for this compound: O=C1C=CC(=O)N1c1cc(F)c(Br)c(F)c1
## Result 0.0139

---

# cond: in ethanol, 293.59 K
recorded metric: solubility (mole fraction)
// no unit, no text: just the number

## Task Look up solubility (mole fraction) for this compound: O=C1C=CC(=O)N1c1cc(F)c(Br)c(F)c1
## Result 0.0003

---

# cond: in ethanol, 299.85 K
recorded metric: solubility (mole fraction)
// no unit, no text: just the number

## Task Look up solubility (mole fraction) for this compound: O=C1C=CC(=O)N1c1cc(F)c(Br)c(F)c1
## Result 0.0004

---

# cond: in THF, 324.65 K
recorded metric: solubility (mole fraction)
// no unit, no text: just the number

## Task Look up solubility (mole fraction) for this compound: O=C1C=CC(=O)N1c1cc(F)c(Br)c(F)c1
## Result 0.0383

---

# cond: in acetone, 316.55 K
recorded metric: solubility (mole fraction)
// no unit, no text: just the number

## Task Look up solubility (mole fraction) for this compound: O=C1C=CC(=O)N1c1cc(F)c(Br)c(F)c1
## Result 0.0174

---

# cond: in pyridine, 337.95 K
recorded metric: solubility (mole fraction)

## Task Look up solubility (mole fraction) for this molecule: O=C1C=CC(=O)N1c1cc(F)c(Br)c(F)c1
## Result 0.0432

---

# cond: in THF, 336.25 K
recorded metric: solubility (mole fraction)
// no unit, no text: just the number

## Task Look up solubility (mole fraction) for this molecule: O=C1C=CC(=O)N1c1cc(F)c(Br)c(F)c1
## Result 0.0497

---

# cond: in acetonitrile, 304.85 K
recorded metric: solubility (mole fraction)
// no unit, no text: just the number

## Task Look up solubility (mole fraction) for this compound: O=C1C=CC(=O)N1c1cc(F)c(Br)c(F)c1
## Result 0.0044

---

# cond: in ethanol, 344.15 K
recorded metric: solubility (mole fraction)
// no unit, no text: just the number

## Task Look up solubility (mole fraction) for this compound: O=C1C=CC(=O)N1c1cc(F)c(Br)c(F)c1
## Result 0.0033

---

# cond: in ethanol, 288.65 K
recorded metric: solubility (mole fraction)
// no unit, no text: just the number

## Task Look up solubility (mole fraction) for this compound: O=C1C=CC(=O)N1c1cc(F)c(Br)c(F)c1
## Result 0.0003

---

# cond: in pyridine, 289.66 K
recorded metric: solubility (mole fraction)

## Task Look up solubility (mole fraction) for this molecule: O=C1C=CC(=O)N1c1cc(F)c(Br)c(F)c1
## Result 0.0129

---

# cond: in THF, 291.55 K
recorded metric: solubility (mole fraction)
// no unit, no text: just the number

## Task Look up solubility (mole fraction) for this molecule: O=C1C=CC(=O)N1c1cc(F)c(Br)c(F)c1
## Result 0.0176

---

# cond: in ethanol, 332.95 K
recorded metric: solubility (mole fraction)

## Task Look up solubility (mole fraction) for this compound: O=C1C=CC(=O)N1c1cc(F)c(Br)c(F)c1
## Result 0.002

---

# cond: in ethanol, 318.15 K
recorded metric: solubility (mole fraction)
// no unit, no text: just the number

## Task Look up solubility (mole fraction) for this compound: O=C1C=CC(=O)N1c1cc(F)c(Br)c(F)c1
## Result 0.0011

---

# cond: in acetonitrile, 299.25 K
recorded metric: solubility (mole fraction)
// no unit, no text: just the number

## Task Look up solubility (mole fraction) for this compound: O=C1C=CC(=O)N1c1cc(F)c(Br)c(F)c1
## Result 0.0037

---

# cond: in acetonitrile, 338.65 K
recorded metric: solubility (mole fraction)
// no unit, no text: just the number

## Task Look up solubility (mole fraction) for this molecule: O=C1C=CC(=O)N1c1cc(F)c(Br)c(F)c1
## Result 0.0146

---

# cond: in acetonitrile, 320.15 K
recorded metric: solubility (mole fraction)
// no unit, no text: just the number

## Task Look up solubility (mole fraction) for this molecule: O=C1C=CC(=O)N1c1cc(F)c(Br)c(F)c1
## Result 0.0078

---

# cond: in chloroform, 296.65 K
recorded metric: solubility (mole fraction)
// no unit, no text: just the number

## Task Look up solubility (mole fraction) for this compound: O=C1C=CC(=O)N1c1cc(F)c(Br)c(F)c1
## Result 0.0069

---

# cond: in chloroform, 315.35 K
recorded metric: solubility (mole fraction)
// no unit, no text: just the number

## Task Look up solubility (mole fraction) for this compound: O=C1C=CC(=O)N1c1cc(F)c(Br)c(F)c1
## Result 0.012

---

# cond: in acetonitrile, 347.25 K
recorded metric: solubility (mole fraction)
// no unit, no text: just the number

## Task Look up solubility (mole fraction) for this molecule: O=C1C=CC(=O)N1c1cc(F)c(Br)c(F)c1
## Result 0.0198

---

# cond: in chloroform, 322.15 K
recorded metric: solubility (mole fraction)
// no unit, no text: just the number

## Task Look up solubility (mole fraction) for this molecule: O=C1C=CC(=O)N1c1cc(F)c(Br)c(F)c1
## Result 0.0146

---

# cond: in pyridine, 293.95 K
recorded metric: solubility (mole fraction)
// no unit, no text: just the number

## Task Look up solubility (mole fraction) for this molecule: O=C1C=CC(=O)N1c1cc(F)c(Br)c(F)c1
## Result 0.0144

---

# cond: in acetone, 323.35 K
recorded metric: solubility (mole fraction)
// no unit, no text: just the number

## Task Look up solubility (mole fraction) for this compound: O=C1C=CC(=O)N1c1cc(F)c(Br)c(F)c1
## Result 0.0214

---

# cond: in acetonitrile, 341.65 K
recorded metric: solubility (mole fraction)
// no unit, no text: just the number

## Task Look up solubility (mole fraction) for this compound: O=C1C=CC(=O)N1c1cc(F)c(Br)c(F)c1
## Result 0.0165

---

# cond: in THF, 297.55 K
recorded metric: solubility (mole fraction)
// no unit, no text: just the number

## Task Look up solubility (mole fraction) for this compound: O=C1C=CC(=O)N1c1cc(F)c(Br)c(F)c1
## Result 0.02

---

# cond: in acetone, 304.55 K
recorded metric: solubility (mole fraction)
// no unit, no text: just the number

## Task Look up solubility (mole fraction) for this compound: O=C1C=CC(=O)N1c1cc(F)c(Br)c(F)c1
## Result 0.012
